Listed next: entries and their corresponding koff.
- assay_target: T1, human CD3 E&D complex protein (Sino Biological Inc., CT026H0323H) (human, UniProt P07766 23-126; P04234 22-105)
- T1 construct: bought heterodimer; also called human CD3 protein (CT026H0323H)
- T1 sequence (P07766 23-126, chain 1 of 2): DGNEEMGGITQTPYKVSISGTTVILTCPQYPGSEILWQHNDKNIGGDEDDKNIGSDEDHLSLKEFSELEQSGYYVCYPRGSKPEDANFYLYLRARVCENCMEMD
- T1 sequence (P04234 22-105, chain 2 of 2): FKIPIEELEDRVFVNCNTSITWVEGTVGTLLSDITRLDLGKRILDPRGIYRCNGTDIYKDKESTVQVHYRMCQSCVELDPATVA
- experiment_description: BLI, antibody on sensor
readout_label: koff (s⁻¹)

binder	readout_value
hzsp34.85 (antibody, human IgG1, lambda, L234A L235A, V domains shown, CDR mutant of hzsp34.24; IgG1 L234A L235A, lambda) VH: EVQLVESGGGLVQPGGSLKLSCAASGFTFNTYAMNWVRQASGKGLEWVGRIRSKYNGYATYYADSVKDRFTISRDDSKSTLYLQMNSLKTEDTAVYYCARHGNFGQSYVSWFAYWGQGTTVTVSS VL: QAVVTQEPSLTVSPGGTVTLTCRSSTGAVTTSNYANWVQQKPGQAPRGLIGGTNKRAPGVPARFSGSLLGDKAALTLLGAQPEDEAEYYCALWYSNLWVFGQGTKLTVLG	0.000304
hzsp34.91 (antibody, human IgG1, lambda, L234A L235A, V domains shown, CDR mutant of hzsp34.24; IgG1 L234A L235A, lambda) VH: EVQLVESGGGLVQPGGSLKLSCAASGFTFNTYAMNWVRQASGKGLEWVGRIRSKYNNYATYYADSVKDRFTISRDDSKSTLYLQMNSLKTEDTAVYYCARHGNFGGSYVSWFAYWGQGTTVTVSS VL: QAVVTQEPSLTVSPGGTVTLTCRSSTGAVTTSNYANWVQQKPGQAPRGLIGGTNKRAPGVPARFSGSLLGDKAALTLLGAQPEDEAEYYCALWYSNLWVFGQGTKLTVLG	0.000528
hzsp34.94 (antibody, human IgG1, lambda, L234A L235A, V domains shown, CDR mutant of hzsp34.24; IgG1 L234A L235A, lambda) VH: EVQLVESGGGLVQPGGSLKLSCAASGFTFNTYAMNWVRQASGKGLEWVGRIRSKYNNYATYYADSVKDRFTISRDDSKSTLYLQMNSLKTEDTAVYYCARHGNFGQSYASWFAYWGQGTTVTVSS VL: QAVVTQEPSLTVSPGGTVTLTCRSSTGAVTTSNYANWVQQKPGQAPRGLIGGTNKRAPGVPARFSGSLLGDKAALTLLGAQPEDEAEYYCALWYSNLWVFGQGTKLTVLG	0.0002
hzsp34.100 (antibody, human IgG1, lambda, L234A L235A, V domains shown, CDR mutant of hzsp34.24; IgG1 L234A L235A, lambda) VH: EVQLVESGGGLVQPGGSLKLSCAASGFTFNTYAMNWVRQASGKGLEWVGRIRSKYNNYATYYADSVKDRFTISRDDSKSTLYLQMNSLKTEDTAVYYCARHGNFGGRYVSWFAYWGQGTTVTVSS VL: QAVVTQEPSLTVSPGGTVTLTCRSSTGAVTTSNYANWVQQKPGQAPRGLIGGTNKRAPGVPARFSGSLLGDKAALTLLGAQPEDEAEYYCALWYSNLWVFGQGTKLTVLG	0.000276
hzsp34.104 (antibody, human IgG1, lambda, L234A L235A, V domains shown, CDR mutant of hzsp34.24; IgG1 L234A L235A, lambda) VH: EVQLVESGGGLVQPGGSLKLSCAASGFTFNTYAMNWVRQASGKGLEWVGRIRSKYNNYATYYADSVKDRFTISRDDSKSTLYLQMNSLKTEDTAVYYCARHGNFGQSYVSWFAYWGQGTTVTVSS VL: QAVVTQEPSLTVSPGGTVTLTCRSSTGAVTGSNYANWVQQKPGQAPRGLIGGTNKRAPGVPARFSGSLLGDKAALTLLGAQPEDEAEYYCALWYSNLWVFGQGTKLTVLG	0.000542
hzsp34.87 (antibody, human IgG1, lambda, L234A L235A, V domains shown, CDR mutant of hzsp34.24; IgG1 L234A L235A, lambda) VH: EVQLVESGGGLVQPGGSLKLSCAASGFTFNTYAMNWVRQASGKGLEWVGRIRSKYNNYATYYADSVKDRFTISRDDSKSTLYLQMNSLKTEDTAVYYCARHYNFGQSYVSWFAYWGQGTTVTVSS VL: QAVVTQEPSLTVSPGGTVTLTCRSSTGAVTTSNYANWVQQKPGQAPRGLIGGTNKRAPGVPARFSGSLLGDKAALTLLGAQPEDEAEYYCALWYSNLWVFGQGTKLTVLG	0.000152
